- Tested on: Staphylococcus aureus
- method description: Antibacterial activity against methicillin-resistant Staphylococcus aureus isolate 4023 after 18 hrs by broth microdilution method
- Type: functional
- condition info: isolate 4023, 18 h
result type: MIC90

Below, each entry is followed by its recorded MIC90 result.
smiles string | result type | val
COc1cccc(OC)c1C(=O)N[C@@H]1C(=O)N2[C@@H]1SC(C)(C)[C@@H]2C(=O)O | MIC90 | > 64 µg/mL
CC(C)(C)c1ccc(CN2CCCN(CCc3cc(-c4cccs4)nc(-c4ccncc4)n3)CC2)cc1 | MIC90 | 2 µg/mL
CC(C)c1ccc(CN2CCCN(CCc3cc(-c4cccs4)nc(-c4ccncc4)n3)CC2)cc1 | MIC90 | 2 µg/mL

Would you mind telling me what MIC90 value was observed for `CN[C@H](CC(C)C)C(=O)N[C@H]1C(=O)N[C@@H](CC(N)=O)C(=O)N[C@H]2C(=O)N[C@H]3C(=O)N[C@H](C(=O)N[C@H](C(=O)O)c4cc(O)cc(O)c4-c4cc3ccc4O)[C@H](O)c3ccc(c(Cl)c3)Oc3cc2cc(c3O[C@@H]2O[C@H](CO)[C@@H](O)[C@H](O)[C@H]2O[C@H]2C[C@](C)(N)[C@H](O)[C@H](C)O2)Oc2ccc(cc2Cl)[C@H]1O` ? 2 µg/mL

Okay, and `FC(F)(F)c1ccc(CN2CCCN(CCc3cc(-c4cccs4)nc(-c4ccncc4)n3)CC2)cc1` ? 4 µg/mL

###

Overview of recorded MIC90 for various compounds
- Tested on: Bacillus subtilis
- method description: Antibacterial activity against Bacillus subtilis 168 after 18 hrs by broth microdilution method
- Assay type: functional
- condition info: subsp. subtilis str. 168, 18 h
Phrase the answer as number then unit, nothing more needed.

Below, each entry is followed by its recorded MIC90 result.
smiles string | subject of test | val
Fc1ccc(CN2CCCN(CCc3cc(-c4cccs4)nc(-c4ccncc4)n3)CC2)cc1 | Bacillus subtilis | 8 µg/mL
Cc1nc(CCN2CCCN(Cc3ccccc3F)CC2)cc(-c2cccs2)n1 | Bacillus subtilis | 192 µg/mL
Fc1cccc(CN2CCCN(CCc3cc(-c4cccs4)nc(-c4ccncc4)n3)CC2)c1 | Bacillus subtilis | 8 µg/mL
Cc1nc(CCN2CCCN(Cc3ccc(C(C)(C)C)cc3)CC2)cc(-c2cccs2)n1 | Bacillus subtilis | 64 µg/mL

API: value(readout=MIC90, system=Bacillus subtilis) for record `CC(C)(C)c1ccc(CN2CCCN(CCc3cc(-c4cccs4)nc(-c4ccncc4)n3)CC2)cc1` 2 µg/mL

###

- Tested on: Staphylococcus aureus
- method description: Antibacterial activity against methicillin-resistant Staphylococcus aureus ATCC 33591 after 18 hrs by broth microdilution method
- Format: functional
- condition info: ATCC 33591, 18 h
Overview of recorded MIC90 for various compounds
Provide only the numeric value, understood in µg/mL.

Below, each entry is followed by its recorded MIC90 result.
smiles string | scale unit | MIC90
CC(C)(C)c1ccc(CN2CCCN(CCc3cc(-c4cccs4)nc(-c4ccncc4)n3)CC2)cc1 | µg/mL | 2
FC(F)(F)c1ccc(CN2CCCN(CCc3cc(-c4cccs4)nc(-c4ccncc4)n3)CC2)cc1 | µg/mL | 4
COc1ccc2cc3[n+](cc2c1OC)CCc1cc2c(cc1-3)OCO2 | µg/mL | 192
CC(C)c1ccc(CN2CCCN(CCc3cc(-c4cccs4)nc(-c4ccncc4)n3)CC2)cc1 | µg/mL | 2

Would you mind telling me what MIC90 value was observed for `CN[C@H](CC(C)C)C(=O)N[C@H]1C(=O)N[C@@H](CC(N)=O)C(=O)N[C@H]2C(=O)N[C@H]3C(=O)N[C@H](C(=O)N[C@H](C(=O)O)c4cc(O)cc(O)c4-c4cc3ccc4O)[C@H](O)c3ccc(c(Cl)c3)Oc3cc2cc(c3O[C@@H]2O[C@H](CO)[C@@H](O)[C@H](O)[C@H]2O[C@H]2C[C@](C)(N)[C@H](O)[C@H](C)O2)Oc2ccc(cc2Cl)[C@H]1O` ? 2
